Assay: ATG_GRE_CIS: Attagene CIS-FACTORIAL HepG2 Assay for human Glucocorticoid Response Elements (GRE) (AID 2282947)
Conditions: HepG2 GRE cis-reporter, Attagene multiplex mRNA; actives raise or lower the signal
Calls of active or inactive are those of the source. How the source made its calls: active means hit-call score of the fitted dose curve at least 0.9, where 1 is the maximum; inactive means score below 0.9.

compound	outcome
CC[C@H](C)[C@H]1O[C@]2(C=C[C@@H]1C)C[C@@H]1C[C@@H](C/C=C(\C)[C@@H](O[C@H]3C[C@H](OC)[C@@H](O[C@H]4C[C@H](OC)[C@@H](O)[C@H](C)O4)[C@H](C)O3)[C@@H](C)/C=C/C=C3\CO[C@@H]4[C@H](O)C(C)=C[C@@H](C(=O)O1)[C@]34O)O2 (tested in a mixture with another compound)	inactive
CCS(=O)(=O)c1cccnc1S(=O)(=O)NC(=O)Nc1nc(OC)cc(OC)n1	inactive

====

Read-out: Paternally Expressed 10 (PEG10), PEG10 (gene 23089)
Test: LTEA_HepaRG_PEG10: Life Technologies and Expression Analysis (LTEA) Assay for Paternally Expressed 10 (PEG10) using HepaRG (AID 2283520)
Details: mRNA level, 48 h; actives raise or lower the signal
The source made the active and inactive calls. Rule for the calls: active = hit-call score of the fitted dose curve at least 0.9, where 1 is the maximum; inactive = score below 0.9.
Valid outcomes are listed here; reply with one: active, inactive

Task: Please share the test call associated with O=C1c2ccccc2C(=O)N1SC(Cl)(Cl)Cl .
Output: inactive

Task: Please share the test call associated with O=[N+]([O-])/N=C1\NCCN1Cc1ccc(Cl)nc1 .
Output: active

Task: Please share the test call associated with CCOCN(C(=O)CCl)c1c(C)cccc1CC .
Output: inactive

Task: Please share the test call associated with O=C(O)CCCOc1ccc(Cl)cc1Cl .
Output: active

Task: Please share the test call associated with CCC(C)(C)C(=O)OC1=C(c2ccc(Cl)cc2Cl)C(=O)OC12CCCCC2 .
Output: inactive

Task: Please share the test call associated with COP(=O)(OC)OC=C(Cl)Cl .
Output: inactive

Task: Please share the test call associated with Clc1ccccc1-c1nnc(-c2ccccc2Cl)nn1 .
Output: active

Task: Please share the test call associated with O=[N+]([O-])c1c(Cl)c(Cl)c(Cl)c(Cl)c1Cl .
Output: active

Task: Please share the test call associated with CC1(c2ccc(Oc3ccccc3)cc2)OC(=O)N(Nc2ccccc2)C1=O (configuration not stated) .
Output: active

Task: Please share the test call associated with CC1(C)C(C=C(Cl)Cl)C1C(=O)OC(C#N)c1ccc(F)c(Oc2ccccc2)c1 (configuration not stated) .
Output: inactive

Task: Please share the test call associated with Cc1[nH]c(=O)n(C(C)(C)C)c(=O)c1Cl .
Output: inactive

Task: Please share the test call associated with CCN(CC)C(=O)SCc1ccc(Cl)cc1 .
Output: inactive

====

Read-out: E-selectin (Homo sapiens) (UniProt P16581)
Sequence (P16581 whole entry, looked up): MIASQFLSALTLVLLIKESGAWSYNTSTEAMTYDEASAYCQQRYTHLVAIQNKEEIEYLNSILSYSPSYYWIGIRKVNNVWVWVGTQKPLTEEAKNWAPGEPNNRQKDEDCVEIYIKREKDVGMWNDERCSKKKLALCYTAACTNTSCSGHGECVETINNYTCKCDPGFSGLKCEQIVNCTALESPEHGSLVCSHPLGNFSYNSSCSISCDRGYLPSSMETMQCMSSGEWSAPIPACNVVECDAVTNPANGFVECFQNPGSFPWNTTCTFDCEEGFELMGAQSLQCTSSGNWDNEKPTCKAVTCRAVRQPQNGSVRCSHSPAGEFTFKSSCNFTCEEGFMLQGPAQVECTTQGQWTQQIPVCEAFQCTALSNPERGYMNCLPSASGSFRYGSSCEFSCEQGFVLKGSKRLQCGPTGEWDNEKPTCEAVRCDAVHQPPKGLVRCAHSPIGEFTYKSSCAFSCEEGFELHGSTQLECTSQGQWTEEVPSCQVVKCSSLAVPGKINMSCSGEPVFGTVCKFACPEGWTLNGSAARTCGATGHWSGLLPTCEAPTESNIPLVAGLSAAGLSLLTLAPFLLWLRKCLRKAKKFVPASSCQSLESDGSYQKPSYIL
Assay: BSK_LPS_Eselectin: BioMAP Diversity Plus: LPS Assay for Eselectin Biomarker Activity (AID 2283077)
Details: primary human HUVEC with PBMC; actives raise or lower the signal
Active and inactive are the calls of the source. Rule for the calls: active = hit-call score of the fitted dose curve at least 0.9, where 1 is the maximum; inactive = score below 0.9.
Valid outcomes are listed here; reply with one: active, inactive

Task: Please share the test call associated with [2H]C1([2H])[n+]2ccccc2-c2cccc[n+]2C1([2H])[2H] .
Output: inactive

Task: Please share the test call associated with CCc1ccc(C(=O)NN(C(=O)c2cc(C)cc(C)c2)C(C)(C)C)cc1 .
Output: inactive

Task: Please share the test call associated with OCCOc1ccccc1 .
Output: inactive

Task: Please share the test call associated with CCN(CC)C(=O)SCc1ccc(Cl)cc1 .
Output: inactive

Task: Please share the test call associated with CNC(=O)/C=C(\C)OP(=O)(OC)OC .
Output: inactive

Task: Please share the test call associated with CCC(C)(NC(=O)c1cc(Cl)c(C)c(Cl)c1)C(=O)CCl (configuration not stated) .
Output: active

Task: Please share the test call associated with COC(=O)c1ccccc1S(=O)(=O)NC(=O)Nc1nc(C)nc(OC)n1 .
Output: inactive

Task: Please share the test call associated with O=C(O)COc1ccc(Cl)cc1Cl .
Output: inactive

Task: Please share the test call associated with COP(=O)(OC)OC=C(Cl)Cl .
Output: inactive

Task: Please share the test call associated with O=C(NC(=O)c1c(F)cccc1F)Nc1ccc(OC(F)(F)C(F)OC(F)(F)F)c(Cl)c1 (configuration not stated) .
Output: inactive

Task: Please share the test call associated with C#CCN1C(=O)COc2cc(F)c(N3C(=O)C4=C(CCCC4)C3=O)cc21 .
Output: inactive

Task: Please share the test call associated with CC(C)N(C(=O)COc1nnc(C(F)(F)F)s1)c1ccc(F)cc1 .
Output: inactive
